// provenance: patent US20080107658A1

# System under test: human nerve growth factor (beta-NGF) (human, UniProt P01138 122-241)
# Sequence (P01138 122-241): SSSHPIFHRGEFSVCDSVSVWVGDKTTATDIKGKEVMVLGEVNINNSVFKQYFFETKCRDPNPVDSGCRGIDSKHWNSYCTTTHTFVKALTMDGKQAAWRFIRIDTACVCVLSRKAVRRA
# Assay details: cell-based or functional assay
Value kind: IC50, calcium mobilisation assay

Some binders with recorded IC50, calcium mobilisation assay:
INSERT INTO assay_data (binder, value_kind, result) VALUES
  ('1033B2 human IgG4 (antibody, V domains shown) VH: QVQLQQSGAEVKKPGSSVKLSCKASGGTFSSFGISWVRQAPGQGLEWLGRIIPFLGPADYAQKFQGRVTITADESRSTAYMELSSLTSEDTAVYFCARSFYDILTGYYEGVFYYYMDVWGQGTMVTVSS VL: QSVLIQPASVSGSPGQSITISCTGTSSDVGGYNYVSWYQQHPGKAPKLMIYEGSKRPSGVSNRFSGSKSGNTASLTISGLQAEDEADYYCSSYTTRSTRVFGGGTKLTVL', 'IC50, calcium mobilisation assay', '85 nM'),
  ('1028F8 human IgG4 (antibody, V domains shown) VH: EVQLLESGGGLVQPGGSLRLSCAASGFTFSSYAMSWVRQAPGKGLEWVSAIIGSGGSTYYADSVKGRFTISRDNSKNTLYLQMNSLRAEDTAVYYCARAGGSGWFENWFDPWGRGTLVTVSS VL: QSVLTQPPSVSVSPGQTATITCSGDNLEDKYVSWYQQKAGQSPVLVIFQDSKRPSEIPERFSGSNSGNTATLTISGTLSGDEADYYCQVWDAGIDPWAFGGGTKLTVL', 'IC50, calcium mobilisation assay', '73 nM');

# evaluate next
The value of IC50, calcium mobilisation assay measured for the binder 1024C4 human IgG4 (antibody, V domains shown) VH: QVQLQESGGGVVQPGRSLRLSCAASGFAFKKYGLHWVRQAPGKGLEWVGVTSYDGSKNYYADSVKGRFTISRDNSKNTLYLQVNSLRPEDTAVYYCAKDGEVGDLHLVPFRQDSGLDVWGRGTLVTVSS VL: QSVLTQPPSVSVSPGQTASITCSGDNLGDKYVHWYQQKPGQSPVLVTYQDTKRPSGIPERFSGSNSGNTATLTISGTQAMDEAGYYCQAWDSSTVVFGGGTKLTVL turned out to be ~410 nM
